These measurements were taken from ChEMBL document CHEMBL5390230.

SYSTEM: Sphingosine-1-phosphate transporter SPNS2 (Homo sapiens)
PROTOCOL NOTES: Inhibition of Spns2 in human HeLa cells decrease in extracellular S1P level by LC/MS method
Reported values of IC50 for individual entries
Report only the number, with the unit nM understood.

GIVEN SMILES: CCCCCCCCCCc1ccc(-c2cn(C)c(CCCN)n2)cc1
SYSTEM: Sphingosine-1-phosphate transporter SPNS2 (Homo sapiens)
IC50, nM: 2820

# evaluate next
Bench note: what IC50 did "CCCCCCCCCCc1ccc(-c2cn(CC)c(CCCN)n2)cc1" show?
1400

###

SYSTEM: Sphingosine-1-phosphate transporter SPNS2 (Homo sapiens) (UniProt Q8IVW8)
PROTOCOL NOTES: Inhibition of Spns2 in human HeLa cells assessed as decrease in extracellular S1P level at 3 uM by LC/MS analysis relative to control
Type: cell-based
PARAMETER: inhibition (%)
Could you give me the number in %? Just the number is fine.

GIVEN SMILES: CCCCCCCc1nc(-c2ccc(-n3cc[n+](C)c3)cc2)no1
inhibition / %: 0
--
GIVEN SMILES: CCCCCCCCc1nc(-c2ccc(-n3ccnc3)cc2)no1
inhibition / %: 22
--
GIVEN SMILES: CCCCCCCc1nc(-c2ccc(-n3ccnc3)cc2)no1
inhibition / %: 12
--
GIVEN SMILES: CCCCCCCCCc1nc(-c2ccc(-n3ccnc3)cc2)no1
inhibition / %: 28
--
GIVEN SMILES: CCCCCCCCc1nc(-c2ccc(-n3cc[n+](C)c3)cc2)no1
inhibition / %: 26

State its inhibition on Sphingosine-1-phosphate transporter SPNS2 (Homo sapiens) (UniProt Q8IVW8): "CCCCCCCCCCc1nc(-c2ccc(-n3cc[n+](C)c3)cc2)no1"
41

Hi! What's the reported inhibition for "CCCCCCCCCCCc1nc(-c2ccc(-n3cc[n+](C)c3)cc2)no1" on Sphingosine-1-phosphate transporter SPNS2 (Homo sapiens) (UniProt Q8IVW8)?
3

Quick check: inhibition on Sphingosine-1-phosphate transporter SPNS2 (Homo sapiens) (UniProt Q8IVW8), item "CCCCCCCCCCCc1nc(-c2ccc(-n3ccnc3)cc2)no1" ?
25

Missing value: inhibition, Sphingosine-1-phosphate transporter SPNS2 (Homo sapiens) (UniProt Q8IVW8), entry "CCCCCCCCCCc1nc(-c2ccc(-n3ccnc3)cc2)no1" . Fill in?
33

Please provide the recorded inhibition for "CCCCCCCCCc1nc(-c2ccc(-n3cc[n+](C)c3)cc2)no1" , tested on Sphingosine-1-phosphate transporter SPNS2 (Homo sapiens) (UniProt Q8IVW8).
47

###

Reported inhibition is given for each of the following molecules.
SYSTEM: Sphingosine-1-phosphate transporter SPNS2 (Homo sapiens)
Sequence (whole entry): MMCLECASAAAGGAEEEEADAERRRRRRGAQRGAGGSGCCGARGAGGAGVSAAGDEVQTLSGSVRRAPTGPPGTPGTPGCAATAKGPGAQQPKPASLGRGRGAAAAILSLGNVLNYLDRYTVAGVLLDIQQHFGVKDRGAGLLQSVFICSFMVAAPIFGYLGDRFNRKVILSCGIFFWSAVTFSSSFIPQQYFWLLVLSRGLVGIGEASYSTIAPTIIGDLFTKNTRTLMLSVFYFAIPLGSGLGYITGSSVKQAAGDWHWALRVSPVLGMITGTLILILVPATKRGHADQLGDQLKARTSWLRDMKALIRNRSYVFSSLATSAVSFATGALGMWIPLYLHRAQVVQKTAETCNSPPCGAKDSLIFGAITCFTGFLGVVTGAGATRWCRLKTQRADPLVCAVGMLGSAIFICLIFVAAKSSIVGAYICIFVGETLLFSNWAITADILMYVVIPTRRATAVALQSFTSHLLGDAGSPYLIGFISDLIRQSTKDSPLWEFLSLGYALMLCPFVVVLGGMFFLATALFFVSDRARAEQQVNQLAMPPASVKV
PROTOCOL NOTES: Inhibition of Spns2 in human HeLa cells assessed as decrease in extracellular S1P level at 2 uM by LC/MS analysis relative to control
Type: cell-based
Could you write the number and then its unit?

Reported inhibition for Sphingosine-1-phosphate transporter SPNS2 (Homo sapiens), given "CCCCCCCCCCc1ccc(-c2cn(CC(=O)OC(C)C)c(CCCN)n2)cc1" ?
27%

Form field - read-out: inhibition; system: Sphingosine-1-phosphate transporter SPNS2 (Homo sapiens); submitted item: "CCCCCCCCCCc1ccc(-c2cn(C)c(CCCN)n2)cc1"
51%

Tell me reported inhibition for "CCCCCCCCCCc1ccc(-c2noc(CCCN)n2)cc1" , tested with Sphingosine-1-phosphate transporter SPNS2 (Homo sapiens).
67%

GET /values?readout=inhibition&system=Sphingosine-1-phosphate transporter SPNS2 (Homo sapiens)&item= "CCCCCCCCCCc1ccc(-c2cn(CCCOC)c(CCCN)n2)cc1"
11%
